Target: Phosphatidylinositol 3,4,5-trisphosphate 5-phosphatase 1 (Homo sapiens) (UniProt Q92835)
Experiment: Inhibition of recombinant human truncated SHIP1 using PI(3,4,5)P3diC8 at 1 mM after 30 mins by malachite green phosphatase release assay
ENDPOINT_NAME: inhibition (%)
Answers are plain numbers, in %.

Examples with their reported inhibition follow.
| COMPOUND | TARGET_UNDER_TEST | inhibition, % |
| --- | --- | --- |
| CN[C@@H](C)[C@H](O)c1ccccc1 | Phosphatidylinositol 3,4,5-trisphosphate 5-phosphatase 1 (Homo sapiens) (UniProt Q92835) | 0 |
| OC(c1cc(-c2ccccc2)nc2c1ccc1ccccc12)C1CCCCN1 (stereo not drawn) | Phosphatidylinositol 3,4,5-trisphosphate 5-phosphatase 1 (Homo sapiens) (UniProt Q92835) | 38 |
| OC(c1cc(C23CC4CC(CC(C4)C2)C3)nc2c(Cl)cc(Cl)cc12)C1CCCCN1 (stereo not drawn) | Phosphatidylinositol 3,4,5-trisphosphate 5-phosphatase 1 (Homo sapiens) (UniProt Q92835) | 38 |
| C=C[C@H]1CN2CC[C@H]1C[C@H]2[C@H](O)c1ccnc2ccc(OC)cc12 | Phosphatidylinositol 3,4,5-trisphosphate 5-phosphatase 1 (Homo sapiens) (UniProt Q92835) | 0 |
| CN[C@@H](C)[C@@H](O)c1ccccc1 | Phosphatidylinositol 3,4,5-trisphosphate 5-phosphatase 1 (Homo sapiens) (UniProt Q92835) | 2 |
| NCc1cc(-c2ccccc2)nc2c1ccc1ccccc12 | Phosphatidylinositol 3,4,5-trisphosphate 5-phosphatase 1 (Homo sapiens) (UniProt Q92835) | 41 |
| C=C[C@H]1CN2CC[C@H]1C[C@@H]2[C@@H](O)c1ccnc2ccc(OC)cc12 | Phosphatidylinositol 3,4,5-trisphosphate 5-phosphatase 1 (Homo sapiens) (UniProt Q92835) | 19 |

Next up:
Tell me the measured inhibition of OC(c1cc(C(F)(F)F)nc2c(C(F)(F)F)cccc12)C1CCCCN1 (stereo not drawn) , please.
54

====

Target: Phosphatidylinositol 3,4,5-trisphosphate 5-phosphatase 1 (Homo sapiens)
Assay: Inhibition of recombinant human truncated SHIP1 using PI(3,4,5)P3diC8 at 500 uM after 30 mins by malachite green phosphatase release assay
Task for the reader: assign each of the following compounds its reported inhibition.
One number for each entry, in %.

| SUBSTANCE_SMILES | MEASURE_UNIT | inhibition |
| --- | --- | --- |
| OCc1cc(-c2ccccc2)nc2c1ccc1ccccc12 | % | 2 |
| OCc1cc(C23CC4CC(CC(C4)C2)C3)nc2c(Cl)cc(Cl)cc12 | % | 0 |
| O=C(O)c1cc(-c2ccccc2)nc2c1ccc1ccccc12 | % | 7 |

Next up:
Tell me the measured inhibition of O=C(O)c1cc(C23CC4CC(CC(C4)C2)C3)nc2c(Cl)cc(Cl)cc12 , please.
44

====

Biological target: Phosphatidylinositol 3,4,5-trisphosphate 5-phosphatase 2 (Homo sapiens)
Assay: Inhibition of recombinant human truncated SHIP2 using PI(3,4,5)P3diC8 at 1 mM after 30 mins by malachite green phosphatase release assay
Criterion: inhibition meeting or surpassing 10%. Met: 1. Not met: -1.

Answered cases to consult:
| MOLECULE | CLASSIFICATION |
| --- | --- |
| NCc1cc(-c2ccccc2)nc2c1ccc1ccccc12 | 1 |
| OC(c1cc(C23CC4CC(CC(C4)C2)C3)nc2c(Cl)cc(Cl)cc12)C1CCCCN1 (stereo not drawn) | 1 |
| C=C[C@H]1CN2CC[C@H]1C[C@H]2[C@H](O)c1ccnc2ccc(OC)cc12 | -1 |
| OC(c1cc(C(F)(F)F)nc2c(C(F)(F)F)cccc12)C1CCCCN1 (stereo not drawn) | 1 |
| C=C[C@H]1CN2CC[C@H]1C[C@@H]2[C@@H](O)c1ccnc2ccc(OC)cc12 | -1 |

I'd appreciate it if you could say whether CN[C@@H](C)[C@H](O)c1ccccc1 has inhibition at least equal to 10%.
-1

What do you have for OC(c1cc(-c2ccccc2)nc2c1ccc1ccccc12)C1CCCCN1 (stereo not drawn) ?
1

What do you have for CN[C@@H](C)[C@@H](O)c1ccccc1 ?
1

Origin of values: ChEMBL document CHEMBL3627712
